- Experimental Protocol: Calibration of free NIR probe/sensor by bilirubin titration (cuvette fluorometry, fit with equation 1)
- Type: binding
- Run Parameters: effect of fluorophore (cysteine) position; responder probe labeled with 700DX-maleimide
Measured Kd of individual entries
State the answer as a number, implicitly in nM.

[
  {
    "Molecule": "76C-C2XH11-700DXM: rIFABP mutein MGI-KR14-14R 18L 27A 38V 60R 73F 76C 106L 115R 117D 131D-C2XH11 labeled with LICOR 700DX-maleimide (protein, LICOR 700DX-maleimide label; mutated bf sensitive probe, rIFABP mutein MGI-KR14-14R 18L 27A 38V 60R 73F 76C 106L 115R 117D 131D-C2XH11 labeled with LICOR 700DX-maleimide) MGIAFDGTWRVDRNENRERFLERMGINVVARRLGAHDNLRVTITQEGNRFTVRESSNFRNIDRVFELGVDFAYSLFDGCELTGTWTMEGNRLVGRFRRVDNGRELIAVLEISGNELIRTDTYEGVEARRIFRRDRGAASHHHHHHSHRATPNTSPHHHHHHH",
    "U": "nM",
    "Kd": 14
  }
]

Consider the additional molecule presented here.
**Q:** // returns reported Kd for input 25C-C2XH11-700DXM: rIFABP mutein MGI-KR14-14R 18L 25C 27A 38V 60R 73F 106L 115R 117D 131D-C2XH11 labeled with LICOR 700DX-maleimide (protein, C2XH11 tag; LICOR 700DX-maleimide label; mutated bf sensitive probe, rIFABP mutein MGI-KR14-14R 18L 25C 27A 38V 60R 73F 106L 115R 117D 131D-C2XH11 labeled with LICOR 700DX-maleimide) MGIAFDGTWRVDRNENRERFLERMGINCVARRLGAHDNLRVTITQEGNRFTVRESSNFRNIDRVFELGVDFAYSLFDGTELTGTWTMEGNRLVGRFRRVDNGRELIAVLEISGNELIRTDTYEGVEARRIFRRDRGAASHHHHHHSHRATPNTSPHHHHHHH
**A:** 12
